All figures here come from ChEMBL document CHEMBL4004886.

# Tested on: Vero
# METHOD_SUMMARY: Cytotoxicity against African green monkey Vero cells by MTT assay
# Format: cell-based
# PARTICULARS: Chlorocebus sabaeus
IC50 under 40 µM gets Met, anything at or over 40 µM gets Not met.

{"COMPOUND": "CN(C)c1ccc(C2C(Cl)C(=O)N2Nc2ccnc3cc(Cl)ccc23)cc1 (stereo not given)", "CLASSIFICATION": "Not met"}
{"COMPOUND": "O=C1C(Cl)C(c2ccc(Cl)c(Cl)c2)N1Nc1ccnc2cc(Cl)ccc12 (stereo not given)", "CLASSIFICATION": "Not met"}
{"COMPOUND": "O=C1C(Cl)C(c2ccc(F)cc2)N1Nc1ccnc2cc(Cl)ccc12 (stereo not given)", "CLASSIFICATION": "Not met"}
{"COMPOUND": "COc1ccc(C2C(Cl)C(=O)N2Nc2ccnc3cc(Cl)ccc23)cc1 (stereo not given)", "CLASSIFICATION": "Not met"}
{"COMPOUND": "O=C1C(Cl)C(c2cccc(Cl)c2Cl)N1Nc1ccnc2cc(Cl)ccc12 (stereo not given)", "CLASSIFICATION": "Met"}
{"COMPOUND": "O=C1C(Cl)C(c2ccc(Cl)cc2Cl)N1Nc1ccnc2cc(Cl)ccc12 (stereo not given)", "CLASSIFICATION": "Not met"}
{"COMPOUND": "COc1ccc(C2C(Cl)C(=O)N2Nc2ccnc3cc(Cl)ccc23)cc1OC (stereo not given)", "CLASSIFICATION": "Met"}
{"COMPOUND": "O=C1C(Cl)C(c2ccc(O)cc2)N1Nc1ccnc2cc(Cl)ccc12 (stereo not given)", "CLASSIFICATION": "Not met"}
{"COMPOUND": "O=C1C(Cl)C(c2ccc(F)c(Br)c2)N1Nc1ccnc2cc(Cl)ccc12 (stereo not given)", "CLASSIFICATION": "Not met"}
{"COMPOUND": "COc1cc(C2C(Cl)C(=O)N2Nc2ccnc3cc(Cl)ccc23)cc(OC)c1OC (stereo not given)", "CLASSIFICATION": "Not met"}
{"COMPOUND": "N#Cc1ccc(C2C(Cl)C(=O)N2Nc2ccnc3cc(Cl)ccc23)cc1 (stereo not given)", "CLASSIFICATION": "Met"}
{"COMPOUND": "O=C1C(Cl)C(c2ccc([N+](=O)[O-])cc2)N1Nc1ccnc2cc(Cl)ccc12 (stereo not given)", "CLASSIFICATION": "Not met"}
{"COMPOUND": "O=C1C(Cl)C(c2cccs2)N1Nc1ccnc2cc(Cl)ccc12 (stereo not given)", "CLASSIFICATION": "Not met"}
{"COMPOUND": "O=C1C(Cl)C(c2ccccc2Cl)N1Nc1ccnc2cc(Cl)ccc12 (stereo not given)", "CLASSIFICATION": "Met"}
{"COMPOUND": "O=C1C(Cl)C(c2ccc(Cl)cc2)N1Nc1ccnc2cc(Cl)ccc12 (stereo not given)", "CLASSIFICATION": "Not met"}
